Ref: patent US20250243180A1

- Tested on: CRBN-DDB1 (Homo sapiens (Human), UniProt Q96SW2)
- Sequence (Q96SW2 whole entry): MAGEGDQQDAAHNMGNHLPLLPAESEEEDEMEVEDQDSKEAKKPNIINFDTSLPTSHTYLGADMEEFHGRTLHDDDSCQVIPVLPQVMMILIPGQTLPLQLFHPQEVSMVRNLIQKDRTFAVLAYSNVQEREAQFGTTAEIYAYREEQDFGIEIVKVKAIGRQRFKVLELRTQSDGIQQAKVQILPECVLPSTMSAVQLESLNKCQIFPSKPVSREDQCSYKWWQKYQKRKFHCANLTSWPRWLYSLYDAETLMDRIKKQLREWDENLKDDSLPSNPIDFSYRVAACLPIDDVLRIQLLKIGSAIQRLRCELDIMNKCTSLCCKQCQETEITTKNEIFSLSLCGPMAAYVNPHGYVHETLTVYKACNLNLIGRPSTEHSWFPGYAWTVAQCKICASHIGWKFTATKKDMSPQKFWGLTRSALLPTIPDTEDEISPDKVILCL
- Sequence (Q16531 whole entry partner): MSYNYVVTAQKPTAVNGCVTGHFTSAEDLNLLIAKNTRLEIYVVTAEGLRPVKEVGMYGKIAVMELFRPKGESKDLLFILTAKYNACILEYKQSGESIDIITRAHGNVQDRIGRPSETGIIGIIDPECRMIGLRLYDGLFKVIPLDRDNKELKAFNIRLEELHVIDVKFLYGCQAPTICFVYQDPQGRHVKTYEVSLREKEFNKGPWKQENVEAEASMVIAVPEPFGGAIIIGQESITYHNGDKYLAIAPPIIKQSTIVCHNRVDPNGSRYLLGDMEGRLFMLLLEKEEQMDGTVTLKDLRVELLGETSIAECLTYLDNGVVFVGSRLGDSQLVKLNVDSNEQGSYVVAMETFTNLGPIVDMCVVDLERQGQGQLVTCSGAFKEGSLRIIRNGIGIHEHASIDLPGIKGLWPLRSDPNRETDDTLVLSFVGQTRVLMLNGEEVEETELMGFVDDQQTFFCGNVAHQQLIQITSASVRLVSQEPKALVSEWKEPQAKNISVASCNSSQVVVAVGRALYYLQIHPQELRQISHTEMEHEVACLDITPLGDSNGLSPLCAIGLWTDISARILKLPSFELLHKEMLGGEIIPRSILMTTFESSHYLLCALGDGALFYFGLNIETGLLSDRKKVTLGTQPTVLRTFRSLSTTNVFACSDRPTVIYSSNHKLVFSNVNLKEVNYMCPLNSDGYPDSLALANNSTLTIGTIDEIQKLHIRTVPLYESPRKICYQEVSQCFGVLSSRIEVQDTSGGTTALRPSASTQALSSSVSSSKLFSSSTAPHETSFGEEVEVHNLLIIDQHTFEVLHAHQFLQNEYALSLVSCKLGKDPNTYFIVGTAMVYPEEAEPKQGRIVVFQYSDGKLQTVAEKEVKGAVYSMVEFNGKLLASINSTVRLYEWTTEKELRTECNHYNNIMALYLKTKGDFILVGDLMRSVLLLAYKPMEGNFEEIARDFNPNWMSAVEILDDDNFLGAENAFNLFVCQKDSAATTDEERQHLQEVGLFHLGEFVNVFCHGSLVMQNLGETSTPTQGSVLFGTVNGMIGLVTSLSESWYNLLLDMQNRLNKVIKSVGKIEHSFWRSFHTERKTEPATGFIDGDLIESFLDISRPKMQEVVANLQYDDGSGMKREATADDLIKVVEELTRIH
- Test description: Compound binding to CRBN by HTRF assay
- Settings: HTRF class; Cereblon binding
pEC50: −log10 of the molar value.
Quantity: pEC50

API: value(readout=pEC50, system=CRBN-DDB1 (Homo sapiens (Human), UniProt Q96SW2)) for record COc1ccc(C(C)(C)C(=O)NCc2cc(F)c(C3CCC(=O)NC3=O)c(Cl)c2)nn1 (centres unmarked) [Compound 262]
≥ 7.00

Also CC(C)(C(=O)NCc1cc(Cl)c(C2CCC(=O)NC2=O)c(Cl)c1)c1ccnc(C(F)(F)F)c1 (centres unmarked) [Compound 97] , if possible.
6.00 to 7.00

One more molecule: CC(C)(C(=O)NCc1cc(Cl)c(C2CCC(=O)NC2=O)c(Cl)c1)c1cnc(Cl)cn1 (centres unmarked) [Compound 248]
≥ 7.00

# iterate: Cc1cncc(C(C)(C)C(=O)NCc2cc(Cl)c(C3CCC(=O)NC3=O)c(Cl)c2)n1 (centres unmarked) [Compound 176]
≥ 7.00

Same thing, different molecule: CC(C)(C(=O)NCc1cc(Cl)c(C2CCC(=O)NC2=O)c(Cl)c1)c1ncc(CO)cn1 (centres unmarked) [Compound 231]
6.00 to 7.00

What about CC(C)(C(=O)NCc1cc(Cl)c(C2CCC(=O)NC2=O)c(Cl)c1)c1nc(C2CC2)no1 (centres unmarked) [Compound 218] ?
≥ 7.00

Now the molecule CC(C)(C(=O)NCc1ccc(C2CCC(=O)NC2=O)c(Cl)c1)c1ccccc1F (centres unmarked) [Compound 24]
6.00 to 7.00

Likewise for O=C1CCC(c2ccc(CNC(=O)C3(c4ccc(F)cc4)CCOCC3)cc2Cl)C(=O)N1 (centres unmarked) [Compound 138] ?
6.00 to 7.00

* * *

Exercise: for every item that follows, state its recorded EC50.
- Tested on: CRBN-DDB1 (Homo sapiens (Human), UniProt Q96SW2)
- Test description: Compound binding to CRBN by HTRF assay
- Settings: HTRF class; Cereblon binding

So what's the measured EC50 for this one? CC(C)(C(=O)NCc1cc(Cl)c(C2CCC(=O)NC2=O)c(Cl)c1)c1cc(F)c(S(N)(=O)=O)c(F)c1 (stereo not drawn)
≤ 100 nM

Now this one: CC(C)(C(=O)NCc1cc(Cl)c(C2CCC(=O)NC2=O)c(Cl)c1)c1cn(C(C)(F)F)c(=O)cn1 (stereo not drawn)
100 to 1000 nM

Next: CC(C)(C(=O)NCc1cc(Cl)c(C2CCC(=O)NC2=O)c(Cl)c1)c1ccc(C(N)=O)cc1 (stereo not drawn)
100 to 1000 nM

Check CC(C)(C(=O)NCc1cc(Cl)c(C2CCC(=O)NC2=O)c(Cl)c1)c1cnco1 (stereo not drawn) too.
100 to 1000 nM

Here is the next compound: COc1cnc(C(C)(C)C(=O)NCc2cc(F)c(C3CCC(=O)NC3=O)c(Cl)c2)nc1 (stereo not drawn)
≤ 100 nM

Also, CC(C)(C(=O)NCc1cc(Cl)c(C2CCC(=O)NC2=O)c(Cl)c1)c1cc2ncccc2cn1 (stereo not drawn) please.
100 to 1000 nM

Then this compound: CC(C)(C(=O)NCc1cc(Cl)c(C2CCC(=O)NC2=O)c(Cl)c1)c1ncc(CC(F)F)cn1 (stereo not drawn)
≤ 100 nM

Moving on to the next compound: COCc1cnc(C(C)(C)C(=O)NCc2cc(Cl)c(C3CCC(=O)NC3=O)c(Cl)c2)cn1 (stereo not drawn)
100 to 1000 nM

Can you handle CC(C)(C(=O)NCc1ccc(C2CCC(=O)NC2=O)c(Cl)c1)c1ccc(C#N)cc1 (stereo not drawn) next?
100 to 1000 nM

Queued: CC(C)(C(=O)NCc1cc(Cl)c(C2CCC(=O)NC2=O)c(Cl)c1)c1nocc1C(F)(F)F (stereo not drawn)
100 to 1000 nM

Try the compound CC(C)(C(=O)NCc1cc(Cl)c(C2CCC(=O)NC2=O)c(Cl)c1)c1ccc(C(N)=O)cc1F (stereo not drawn)
≤ 100 nM

Then what about the compound CC(C)(C(=O)NCc1cc(Cl)c(C2CCC(=O)NC2=O)c(Cl)c1)c1ccc(OC(F)(F)F)nn1 (stereo not drawn) ?
≤ 100 nM

Same lookup for CC(C)(C(=O)NCc1cc(Cl)c(C2CCC(=O)NC2=O)c(Cl)c1)c1c(F)cncc1F (stereo not drawn) , please.
≤ 100 nM

Would you kindly repeat that for CC1(c2cnc(C(C)(C)C(=O)NCc3cc(Cl)c(C4CCC(=O)NC4=O)c(Cl)c3)nc2)CC1 (stereo not drawn) ?
≤ 100 nM

// next record CC(C)(C(=O)NCc1cc(Cl)c(C2CCC(=O)NC2=O)c(Cl)c1)c1nocc1C1CC1 (stereo not drawn)
100 to 1000 nM
